Entry source: PubChem BioAssay

Recorded measurements of z-score, one per entry
Experiment: basal HepG2 mitochondrial membrane potential changes, profiling panel, cell-based, JC-1 fluorescence, 24 h, 100 nL compound (AID 1167); also: test concentration not given here
Settings: higher = more signal
Readout type: z-score

>>> experimental_result("C=C(C)[C@@H]1CC=C(C(O)C2C=CC3C(=O)N(c4ccccc4)C(=O)C3N2Nc2ccccc2)CC1 (stereo partly specified)")
-1.95
>>> experimental_result("CC(C)C(O)C1C=CC2C(=O)NC(=O)C2N1Nc1ccc(Cl)cc1Cl (stereo unspecified)")
-2.25
>>> experimental_result("O=C1O[C@@H](c2ccccc2)[C@@H](c2ccccc2)N2[C@@H](c3ccccc3OCCO)[C@]3(C(=O)Nc4ccccc43)[C@@H](C(=O)Nc3nc4ccccc4s3)[C@H]12")
-2.85
>>> experimental_result("CC(C)N1C(=O)c2ccccc2[C@](C)(C(=O)NCCN2CCOCC2)[C@@H]1c1ccc(CO)cc1")
0.916
>>> experimental_result("COCCOC(=O)N1C(=O)[C@@]2(c3cc(C#CCNC(N)=O)ccc31)[C@H](C(=O)N1CCN(c3ncccn3)CC1)[C@H]1C(=O)O[C@H](c3ccccc3)[C@H](c3ccccc3)N1[C@@H]2c1ccc(OCCO)cc1")
-2.07
>>> experimental_result("CCOC(=O)[C@H]1C/C=C/C[C@H](C(=O)OCC)C(=O)O[C@H]2[C@@H](OC)O[C@H](CO)[C@@H](OC(=O)c3c(OC)cccc3OC)[C@@H]2OC1=O")
-3.48
>>> experimental_result("COCCCNC(=O)[C@@]1(C)c2ccccc2C(=O)N(C(C)C)[C@H]1c1ccc(CO)cc1")
0.043
>>> experimental_result("CCCCCN1CC=CC23O[C@@H]4C=CCCOC(=O)C4[C@H]2C(=O)N(CCCCCO)[C@@H]3C1=O (stereo partly specified)")
0.301
>>> experimental_result("O=C1C[C@@](C(=O)NCC(F)(F)F)(c2ccc([N+](=O)[O-])cc2)[C@@H](c2ccc(CO)cc2I)N1C1CCCCC1")
0.548
>>> experimental_result("COc1ccc(C(=O)Nc2ccc(CN3C(=O)[C@]4(O[C@H](CCO)[C@@H]([Si](C)(C)c5ccc(OC)cc5)[C@@H]4C)c4ccccc43)cc2)cc1")
-2.72
>>> experimental_result("COC(=O)c1c(CC[C@@H](CO)NC(=O)NCCn2cc(C3(O)CCCC3)nn2)oc(C(C)=O)c1C(=O)OC")
-0.0184
>>> experimental_result("COC(=O)[C@@]1(Cc2ccc(OC)cc2)[C@@H]2C(=CC(=O)[C@H]2CC(=O)C(=O)N2CCCC2)CN1C(=O)c1ccccc1")
0.718
>>> experimental_result("O=C(CS)NCCCCCCNC(=O)[C@@H]1C[C@@H]2C(=O)NCC(=O)N2[C@@H]1c1cccc(OCCO)c1")
0.502
>>> experimental_result("COc1ccc(CCNC(=O)[C@@]2(C)c3ccccc3C(=O)N(C(C)C)[C@H]2c2ccc(CO)cc2)cc1")
2.6
>>> experimental_result("O=C1C2C=CC(C(O)c3cccc4ccccc34)N(Nc3ccccc3F)C2C(=O)N1c1ccccc1 (stereo unspecified)")
-1.86
>>> experimental_result("C=CCNC(=O)[C@@H]1[C@H]2C(=O)O[C@H](c3ccccc3)[C@H](c3ccccc3)N2[C@H](c2ccccc2OCCO)[C@@]12C(=O)N(C(=O)OCCOC)c1ccccc12")
-0.186
